B1: RAB40A (parent)
chain: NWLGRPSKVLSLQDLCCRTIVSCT

# Variants of: B1
# method-summary: protein stability index of a GFP-peptide fusion (GPS, HEK-293T) (PSI 1-6); higher = more stable;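 also: lentivirally expressed fusions sorted by FACS into six bins by GFP to DsRed ratio, PSI derived from sequencing read proportions per bin multiplied by bin number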
# condition-summary: c terminus: a fixed tail appended
assay-readout: protein stability index
# output: bare number, no unit

The cases that follow already have their protein stability index on record.
[
  {
    "variant-spec": "T24I",
    "assay-readout": "protein stability index",
    "recorded-value": 1.58
  },
  {
    "variant-spec": "V21C",
    "assay-readout": "protein stability index",
    "recorded-value": 2.41
  },
  {
    "variant-spec": "N1F",
    "assay-readout": "protein stability index",
    "recorded-value": 2.16
  },
  {
    "variant-spec": "V9W",
    "assay-readout": "protein stability index",
    "recorded-value": 2.16
  },
  {
    "variant-spec": "S11F",
    "assay-readout": "protein stability index",
    "recorded-value": 1.67
  }
]

Request: Record request: protein stability index value, item R5W
Response: 3.09

Request: Please give the result for I20L too.
Response: 2.74

Request: Please give the result for V21S too.
Response: 2.77

Request: Please give the result for C17L too.
Response: 2.77

Request: Please give the result for N1D too.
Response: 2.12

Request: Please give the result for S7Y too.
Response: 1.92

Request: Please give the result for S22D too.
Response: 2.83
